# PROTOCOL SUMMARY: Confirmation Concentration-Response Assay for Enhancers of SMN2 Splice Variant Expression for Probe SAR
# CONDITIONS USED: HEK293 SMN2 exon7 splicing luciferase reporter, luminescence; series mostly up to 46.1 µM
# Text: NIH Chemical Genomics Center [NCGC] NIH Molecular Libraries Probe Production centers Network [MLPCN] MLPCN Grant: R03 MH084179-01 Assay Submitter (PI): Elliot Androphy NCGC Assay Overview: Spinal muscular atrophy (SMA) is caused by insufficient levels of the survival motor neuron protein SMN. The SMN locus on chromosome 5q13 contains two inverted copies of SMN called SMN1 and SMN2 which are 99% identical at the amino acid level. […]
Records with an inconclusive call do not appear. Calls of active or inactive are those of the source. Calls follow the shape of the dose curve; as a rule, active = well fitted activation curve with a large enough effect; inconclusive = small, poorly fitted or top-dose-only effect; inactive = no such curve, though single readings can be large or run the other way.
Outcomes: t (active), f (inactive)

CN(C)c1ccccc1-c1csc(N2CCC(C(N)=O)CC2)n1 = f
CS(=O)(=O)c1ccccc1-c1csc(N2CCC(C(N)=O)CC2)n1 = f
CS(=O)(=O)c1cccc(-c2csc(N3CCC(C(N)=O)CC3)n2)c1 = f
CC(=O)c1ccc(-c2csc(N3CCC(C(N)=O)CC3)n2)cc1 = t
NC(=O)C1CCN(c2nc(-c3ccc4c(c3)OCCO4)cs2)CC1 = t
NC(=O)C1CCN(c2nc(-c3ccc(F)cc3)cs2)CC1 = t
